Test system: Normal serum
Assay: Relative reactivity of substrate with normal serum (absorbancy at 405 nm)
Assay type: biochemical
Settings: substrate 10 mM/l; undiluted human normal serum; Tris 50 mmol, NaCl 150 mmol, pH 8.5; 37° C. 5 minutes; absorbancy 405 nm; relative to S-2222 10 mM = 1.0
Counter-ions that a name gives are not always drawn. Where a SMILES comes first, the peptide text is derived from it.
measured.parameter: Relative Reactivity to Enzyme (relative value of absorbance) Normal Serum
The answer should be written as a number, with no unit following it.

compound	subject.of.test	experimental.result
CC(C)[C@H](NC(=O)OCc1ccccc1)C(=O)NCC(=O)N[C@@H](CCCNC(=N)N)C(=O)Nc1ccc([N+](=O)[O-])cc1 [CHR-TRY, Z-Val-Gly-Arg-pNA-HCl, reference compound] (HELM PEPTIDE1{[O=C(OCc1ccccc1)[*:2]].V.G.R.[O=[N+]([O-])c1ccc(N[*:1])cc1]}$$$$V2.0)	Normal serum	1.70
Cl.Cl.NC(N)=NCCC[C@H](NC(=O)CNC(=O)[C@H](N)CCC(=O)OCc1ccccc1)C(=O)Nc1ccc([N+](=O)[O-])cc1 [Substrate No. 2] (HELM PEPTIDE1{[dE].G.R.[O=[N+]([O-])c1ccc(N[*:1])cc1]}|CHEM1{[c1ccc(CO[*:1])cc1]}$PEPTIDE1,CHEM1,1:R3-1:R1$$$V2.0)	Normal serum	0.12
CC(C)OC(=O)CC[C@@H](N)C(=O)NCC(=O)N[C@@H](CCCN=C(N)N)C(=O)Nc1ccc([N+](=O)[O-])cc1.Cl.Cl [Substrate No. 3] (HELM PEPTIDE1{[dE].G.R.[O=[N+]([O-])c1ccc(N[*:1])cc1]}|CHEM1{[CC(C)O[*:1]]}$PEPTIDE1,CHEM1,1:R3-1:R1$$$V2.0)	Normal serum	0.41
CCCN(CCC)C(=O)CC[C@@H](N)C(=O)NCC(=O)N[C@@H](CCCN=C(N)N)C(=O)Nc1ccc([N+](=O)[O-])cc1.Cl.Cl [Substrate No. 21]	Normal serum	0.20

API: the following record is the query input.
The compound identified as Cl.Cl.NC(N)=NCCC[C@H](NC(=O)[C@@H]1CCCCN1C(=O)[C@H](N)Cc1ccccc1)C(=O)Nc1ccc([N+](=O)[O-])cc1 [S-2238, HDPhePipArgpNA.2HCl, reference compound] registered its Relative Reactivity to Enzyme (relative value of absorbance) Normal Serum at 5.50

* * *

Below: a set of entries, each annotated with reported Relative Reactivity to Enzyme (relative value of absorbance) Try.
Biological target: Trypsin (Bos taurus)
Construct: purchased Boehringer
Sequence (P00760 24-246): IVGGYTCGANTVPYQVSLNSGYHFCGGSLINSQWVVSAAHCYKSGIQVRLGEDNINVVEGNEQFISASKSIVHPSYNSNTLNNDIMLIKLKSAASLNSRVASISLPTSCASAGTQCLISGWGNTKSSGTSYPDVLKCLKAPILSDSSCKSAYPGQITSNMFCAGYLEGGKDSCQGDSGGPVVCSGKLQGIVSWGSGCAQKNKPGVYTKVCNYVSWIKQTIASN
Experiment: Relative reactivity of substrate with trypsin (absorbancy at 405 nm)
Format: biochemical, Bovine
Conditions: substrate 10 mM/l; trypsin 0.07 U/ml; Tris 50 mmol, NaCl 150 mmol, pH 8.1; 37° C. 10 minutes; absorbancy 405 nm; relative to S-2222 10 mM = 1.0
Counter-ions that a name gives are not always drawn. Where a SMILES comes first, the peptide text is derived from it.
Just the number, please, no unit attached.

Worked cases, answers included:
compound	subject.of.test	experimental.result
CC(C)OC(=O)CC[C@@H](N)C(=O)NCC(=O)N[C@@H](CCCN=C(N)N)C(=O)Nc1ccc([N+](=O)[O-])cc1.Cl.Cl [Substrate No. 3] (HELM PEPTIDE1{[dE].G.R.[O=[N+]([O-])c1ccc(N[*:1])cc1]}|CHEM1{[CC(C)O[*:1]]}$PEPTIDE1,CHEM1,1:R3-1:R1$$$V2.0)	Trypsin (Bos taurus)	0.67
Cl.Cl.NC(N)=NCCC[C@H](NC(=O)[C@@H]1CCCCN1C(=O)[C@H](N)Cc1ccccc1)C(=O)Nc1ccc([N+](=O)[O-])cc1 [S-2238, HDPhePipArgpNA.2HCl, reference compound]	Trypsin (Bos taurus)	0.39
CCCN(CCC)C(=O)CC[C@@H](N)C(=O)NCC(=O)N[C@@H](CCCN=C(N)N)C(=O)Nc1ccc([N+](=O)[O-])cc1.Cl.Cl [Substrate No. 21]	Trypsin (Bos taurus)	0.74
Cl.Cl.NC(N)=NCCC[C@H](NC(=O)CNC(=O)[C@H](N)CCC(=O)OCc1ccccc1)C(=O)Nc1ccc([N+](=O)[O-])cc1 [Substrate No. 2] (HELM PEPTIDE1{[dE].G.R.[O=[N+]([O-])c1ccc(N[*:1])cc1]}|CHEM1{[c1ccc(CO[*:1])cc1]}$PEPTIDE1,CHEM1,1:R3-1:R1$$$V2.0)	Trypsin (Bos taurus)	0.71

Now look at this one.
Item: CC(C)[C@H](NC(=O)OCc1ccccc1)C(=O)NCC(=O)N[C@@H](CCCNC(=N)N)C(=O)Nc1ccc([N+](=O)[O-])cc1 [CHR-TRY, Z-Val-Gly-Arg-pNA-HCl, reference compound] (HELM PEPTIDE1{[O=C(OCc1ccccc1)[*:2]].V.G.R.[O=[N+]([O-])c1ccc(N[*:1])cc1]}$$$$V2.0) | System: Trypsin (Bos taurus) | Relative Reactivity to Enzyme (relative value of absorbance) Try: 0.50
